Data provenance: paper PMC3501516

experiment_notes: Pharmacokinetics / plasma GRA1 concentrations in hGCGR mice
Format: in vivo, hGCGR mouse
test_context: mouse, plasma, single oral dose 2 mg/kg, read-out: Apparent plasma terminal half-life (converted)
recorded_metric: half-life (h)

INSERT INTO measurements (compound, recorded_metric, unit_spec, numeric_result) VALUES
  ('COc1ccc2cc(-c3cc(-c4cc(C(F)(F)F)ccc4F)nn3[C@@H](C)c3ccc(C(=O)NCCC(=O)O)cc3)ccc2c1 [GRA1]', 'half-life', 'h', 6.8);

###

target_desc: VPAC2R (vasoactive adenylate cyclase-activating polypeptide receptor type 2) (Homo sapiens)
Sequence (P41587 24-438): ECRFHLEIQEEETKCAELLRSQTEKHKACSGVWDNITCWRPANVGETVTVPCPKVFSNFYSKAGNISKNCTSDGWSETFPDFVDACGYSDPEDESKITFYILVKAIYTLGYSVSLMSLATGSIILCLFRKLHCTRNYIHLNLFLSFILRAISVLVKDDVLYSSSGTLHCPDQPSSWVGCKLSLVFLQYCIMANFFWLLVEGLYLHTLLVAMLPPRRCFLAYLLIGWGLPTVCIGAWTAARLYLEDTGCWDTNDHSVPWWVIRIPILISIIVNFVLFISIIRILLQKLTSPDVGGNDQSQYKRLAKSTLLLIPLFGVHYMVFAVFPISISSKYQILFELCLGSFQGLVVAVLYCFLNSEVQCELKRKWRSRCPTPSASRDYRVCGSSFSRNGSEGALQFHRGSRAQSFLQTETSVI
experiment_notes: Inhibition of agonist-stimulated cAMP production in CHO cells expressing VPAC2R
test_context: VPAC2-stimulated
pIC50: −log10 of the molar value.
recorded_metric: pIC50

INSERT INTO results (smiles_text, numeric_result) VALUES
  ('COc1ccc2cc(-c3cc(-c4cc(C(F)(F)F)ccc4F)nn3[C@@H](C)c3ccc(C(=O)NCCC(=O)O)cc3)ccc2c1', 5.38);
